For each of the binders below, state its OD450 at 13.33 nM.
Molecular target: biotinylated labeled human GPC3 protein (produced in-house) (human, UniProt P51654 25-559, limits assumed, biotinylated (Dojindo, Cat. No. LK03); sites not stated)
Experiment: ELISA, biotinylated human GPC3 protein
Give bare numbers, in OD450.

hAb003LH1L1b (antibody, human IgG1, V domains shown, Humanized F2.154.1; VH H1 + VL L1b; expressed as human IgG1) VH: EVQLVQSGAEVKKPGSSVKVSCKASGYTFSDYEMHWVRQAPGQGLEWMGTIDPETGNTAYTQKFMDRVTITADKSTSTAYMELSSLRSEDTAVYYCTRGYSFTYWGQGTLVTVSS VL: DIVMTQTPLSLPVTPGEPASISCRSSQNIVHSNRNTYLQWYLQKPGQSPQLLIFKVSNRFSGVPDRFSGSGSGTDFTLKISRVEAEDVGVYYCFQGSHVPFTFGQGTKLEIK
2.44

Inquiry: Report OD450 at 13.33 nM for hAb001H2L1b (antibody, human IgG1, V domains shown, Humanized F2.169.2; VH H2 + VL L1b; expressed as human IgG1) VH: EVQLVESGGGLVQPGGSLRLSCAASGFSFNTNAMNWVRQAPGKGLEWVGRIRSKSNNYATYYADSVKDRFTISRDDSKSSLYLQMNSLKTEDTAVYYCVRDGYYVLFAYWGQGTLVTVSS VL: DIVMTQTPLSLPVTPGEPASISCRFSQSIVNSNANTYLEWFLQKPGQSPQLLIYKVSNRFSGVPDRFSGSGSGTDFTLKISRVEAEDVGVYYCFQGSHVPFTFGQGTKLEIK please.
Reply text: 2.53
